All figures here come from ChEMBL document CHEMBL4043301.

Target: Melatonin receptor type 1B (Homo sapiens) (UniProt P49286)
Sequence (whole entry): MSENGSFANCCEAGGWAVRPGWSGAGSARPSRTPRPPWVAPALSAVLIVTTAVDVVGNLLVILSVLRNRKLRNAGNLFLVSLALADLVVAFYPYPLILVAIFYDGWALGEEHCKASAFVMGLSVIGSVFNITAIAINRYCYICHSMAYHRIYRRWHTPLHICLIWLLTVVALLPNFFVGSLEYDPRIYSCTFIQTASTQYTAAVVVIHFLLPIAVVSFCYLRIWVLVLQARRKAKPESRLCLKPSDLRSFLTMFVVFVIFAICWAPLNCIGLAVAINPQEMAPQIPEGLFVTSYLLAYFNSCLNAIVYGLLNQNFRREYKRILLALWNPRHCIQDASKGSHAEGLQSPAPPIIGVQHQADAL
Experiment: Intrinsic activity at human MT2 receptor expressed in CHO cell membranes after 1 hr by [35S]GTPgammaS binding assay
Format: functional
MEASURE_NAME: Emax

Q) I would be grateful if you could share the reported Emax for CCC(=O)NCC1=C(c2ccccc2)c2ccccc2CC1 .
A) 30%

Q) I would be grateful if you could share the reported Emax for CCC(=O)NC[C@@H]1CCc2ccccc2[C@H]1c1ccccc1 (racemic) .
A) 78%

Q) I would be grateful if you could share the reported Emax for CCC(=O)NC1Cc2ccccc2N(c2ccccc2)C1 (racemic) .
A) 41%

Q) I would be grateful if you could share the reported Emax for CC(=O)NCC1Cc2ccccc2N(c2ccccc2)C1 (stereo in doubt; (+)-15e) .
A) 5%

Q) I would be grateful if you could share the reported Emax for CCC(=O)NC[C@@H]1CN(C)c2ccccc2[C@@H]1c1ccccc1 (racemic) .
A) 75%

Q) I would be grateful if you could share the reported Emax for CC(=O)NCC1Cc2ccccc2N(CCc2ccccc2)C1 (racemic) .
A) 47%

Q) I would be grateful if you could share the reported Emax for CC(=O)NCC1Cc2ccccc2N(C)C1 (racemic) .
A) 32%
